System: Salmonella typhimurium strain TA 100
Assay: Ames bio-assay, antimutagenic activity against 2-amino-anthracene (2-AA) with S9 Mix
Format: cell-based
Description: The four major constituents of the benzene extract from Aristolochia taliscana roots—eupomatenoid-7 (7), eupomatenoid-1 (8), eupomatenoid-8 (17), Licarin-A (16)—were tested for their mutagenic and antimutagenic properties using the Ames bio-assay (Maron, D. M. and Ames, B. N., Mutation reasearch, 1983, 113, 173). The test compounds have the following structural formula: [drawing 11] […]
measuredQuantity: antimutagenic effect against 2-aminoanthracene (in words)

In [3]: df
Out[3]:
                                 smilesrepr                 measvalue
0  C/C=C/c1cc(OC)c2c(c1)[C@H](C)[C@@H](c1ccc(O)c(OC)c1)O2  antimutagenically active
1  CC=Cc1cc(OC)c2oc(-c3ccc4c(c3)OCO4)c(C)c2c1  antimutagenically active
